- assayNotes: Repeated once-daily oral dosing with food (Days 1-7) in healthy subjects, PK and PD
- Format: in vivo, human
- runConditions: both sexes, human, plasma, oral, 8 mg, young subjects, 8 mg, Day 1; read-out: tmax, Median
metric: Tmax (h)
Answers are plain numbers, in h.

Consider the compound Cc1ccc(COC(=O)N2CC[C@H](CNc3ncccn3)[C@H](F)C2)cc1 [Form II] and give its measured Tmax.
2

---

- assayNotes: Repeated once-daily oral dosing with food (Days 1-7) in healthy subjects, PK and PD
- Type: in vivo, human
- runConditions: both sexes, human, plasma, oral, 12 mg, intermediate age, 12 mg, Day 7; read-out: Cmax, Mean (SD)
metric: Cmax (ng/mL)
Answers are plain numbers, in ng/mL.

Name the reported Cmax value associated with the compound Cc1ccc(COC(=O)N2CC[C@H](CNc3ncccn3)[C@H](F)C2)cc1 [Form II]
360

---

- assayNotes: Single-dose pharmacokinetics in monkeys (oral and IV)
- Assay type: in vivo
- runConditions: male, rhesus monkey, plasma; IV 2 mg/kg, mean (S.D.); read-out: Vdss
- Procedure: Male Sprague-Dawley rats (N=8; N=4 oral and N=4 intravenous [IV]) weighing approximately 250-280 g and male rhesus monkeys (N=4, crossover) weighing 6.0-8.8 kg were used for the PK studies. […] The concentrations of Form II in rat and monkey plasma were determined by LC/MS/MS analysis in the positive ion mode using a heated nebulizer interface. The lower limit of quantitation was 2.5 ng/mL (approximately 0.00697 μM).
metric: Vd (L/kg)
Answers are plain numbers, in L/kg.

Please report the recorded Vd for Cc1ccc(COC(=O)N2CC[C@H](CNc3ncccn3)[C@H](F)C2)cc1 [Form II] .
2.9

---

- assayNotes: in vivo
- runConditions: both, Sprague-Dawley, rat, po, 10 mg/kg
metric: Cmax

Would you mind telling me what Cmax value was observed for Cc1ccc(COC(=O)N2CC[C@H](CNc3ncccn3)[C@H](F)C2)cc1 [Form II] ?
~4 µM

---

- assayNotes: Repeated once-daily oral dosing with food (Days 1-7) in healthy subjects, PK and PD
- Assay type: in vivo, human
- runConditions: both sexes, human, plasma, oral, 12 mg, young subjects, 12 mg, Day 7; read-out: t1/2, Mean (SD) (converted)
metric: half-life (h)
Give bare numbers, in h.

I'd like to know its half-life. The compound in question is Cc1ccc(COC(=O)N2CC[C@H](CNc3ncccn3)[C@H](F)C2)cc1 [Form II]
20.5

---

- assayNotes: Repeated once-daily oral dosing with food (Days 1-7) in healthy subjects, PK and PD
- Format: in vivo, human
- runConditions: male, human, plasma, oral, males, all doses pooled, Day 7; read-out: Vss/F, Mean (SD)
metric: Vd/F (L)
One number for each entry, in L.

Using the record for Cc1ccc(COC(=O)N2CC[C@H](CNc3ncccn3)[C@H](F)C2)cc1 [Form II] , report its Vd/F.
108

---

- assayNotes: Human pharmacokinetic study, single ascending oral doses
- Format: in vivo
- runConditions: male, human, plasma, oral, 4 mg, fasted, mean
metric: Cmax (ng/mL)
One number for each entry, in ng/mL.

What does the data say about its Cmax? Entry: Cc1ccc(COC(=O)N2CC[C@H](CNc3ncccn3)[C@H](F)C2)cc1 [Form II]
141

---

- assayNotes: Repeated once-daily oral dosing with food (Days 1-7) in healthy subjects, PK and PD
- Assay type: in vivo, human
- runConditions: male, human, plasma, oral, males, all doses pooled, Day 7; read-out: tmax, Mean (SD)
metric: Tmax (h)
Numbers only, in h.

Bench note: what Tmax did Cc1ccc(COC(=O)N2CC[C@H](CNc3ncccn3)[C@H](F)C2)cc1 [Form II] show?
1.88
